Test system: EKVX
ASSAY_OVERVIEW: relative viability (nuclei count vs DMSO), 5 days (fraction); higher = more cells survive
COND: first compound 0.05 µM
Reported relative viability values follow for various compounds
Reply with just the number.

Nc1ccn([C@@H]2O[C@H](CO)[C@@H](O)[C@@H]2O)c(=O)n1 [Cytarabine] + O=C(c1cc(Cc2n[nH]c(=O)c3ccccc23)ccc1F)N1CCN(C(=O)C2CC2)CC1 [Olaparib] (partner 8 µM)
0.695
COc1cc2nccc(Oc3ccc(NC(=O)Nc4cc(C)on4)c(Cl)c3)c2cc1OC [Tivozanib] + COc1cccc2cc(-c3nc([C@H]4CC[C@H](C(=O)O)CC4)n4ncnc(N)c34)[nH]c12 [OSI-027] (partner 0.5 µM)
0.67
COc1cc2nccc(Oc3ccc(NC(=O)Nc4cc(C)on4)c(Cl)c3)c2cc1OC [Tivozanib] + CC(C)C[C@H](NC(=O)[C@H](Cc1ccccc1)NC(=O)c1cnccn1)B(O)O [Bortezomib] (partner 0.002 µM)
1.11
Nc1ccn([C@@H]2O[C@H](CO)[C@@H](O)[C@@H]2O)c(=O)n1 [Cytarabine] + CC1(C)CCC(c2ccc(Cl)cc2)=C(CN2CCN(c3ccc(C(=O)NS(=O)(=O)c4ccc(N[C@H](CCN5CCOCC5)CSc5ccccc5)c(S(=O)(=O)C(F)(F)F)c4)cc3)CC2)C1 [Navitoclax] (partner 0.5 µM)
0.664
COc1cc2nccc(Oc3ccc(NC(=O)Nc4cc(C)on4)c(Cl)c3)c2cc1OC [Tivozanib] + NC(=O)Nc1cc(-c2cccc(F)c2)sc1C(=O)N[C@H]1CCCNC1 [AZD7762] (partner 0.2 µM)
0.76
COc1cc2nccc(Oc3ccc(NC(=O)Nc4cc(C)on4)c(Cl)c3)c2cc1OC [Tivozanib] + CC1(C)CCC(c2ccc(Cl)cc2)=C(CN2CCN(c3ccc(C(=O)NS(=O)(=O)c4ccc(N[C@H](CCN5CCOCC5)CSc5ccccc5)c(S(=O)(=O)C(F)(F)F)c4)cc3)CC2)C1 [Navitoclax] (partner 0.5 µM)
0.982

# next compound below
Ask: State its relative viability: Nc1ccn([C@@H]2O[C@H](CO)[C@@H](O)[C@@H]2O)c(=O)n1 [Cytarabine] + NC(=O)Nc1cc(-c2cccc(F)c2)sc1C(=O)N[C@H]1CCCNC1 [AZD7762] (partner 0.2 µM)
Reply: 0.329

###

Tested on: NCI-H441
ASSAY_OVERVIEW: relative viability (nuclei count vs DMSO), 5 days (fraction); higher = more cells survive
COND: first compound 0.005 µM
Here the recorded relative viability is given for each entry.
Answer with a bare number; do not write a unit.

Before answering, review these 3 worked examples.
Nc1ccn([C@@H]2O[C@H](CO)[C@@H](O)[C@@H]2O)c(=O)n1 [Cytarabine] + C[C@@H](Oc1cc(-c2cnn(C3CCNCC3)c2)cnc1N)c1c(Cl)ccc(F)c1Cl [Crizotinib] (partner 1 µM)
0.776
Nc1ccn([C@@H]2O[C@H](CO)[C@@H](O)[C@@H]2O)c(=O)n1 [Cytarabine] + O=C(c1cc(Cc2n[nH]c(=O)c3ccccc23)ccc1F)N1CCN(C(=O)C2CC2)CC1 [Olaparib] (partner 8 µM)
0.451
COc1cc2nccc(Oc3ccc(NC(=O)Nc4cc(C)on4)c(Cl)c3)c2cc1OC [Tivozanib] + Nc1ncn([C@H]2C[C@H](O)[C@@H](CO)O2)c(=O)n1 [Decitabine] (partner 2 µM)
0.262

Ask: # return recorded relative viability for input COc1cc2nccc(Oc3ccc(NC(=O)Nc4cc(C)on4)c(Cl)c3)c2cc1OC [Tivozanib] + CC(=O)Nc1cccc(-n2c(=O)n(C3CC3)c(=O)c3c(Nc4ccc(I)cc4F)n(C)c(=O)c(C)c32)c1 [Trametinib] (partner 0.02 µM)
Reply: 0.405

Ask: Give reported relative viability value for Nc1ccn([C@@H]2O[C@H](CO)[C@@H](O)[C@@H]2O)c(=O)n1 [Cytarabine] + CS(=O)(=O)N1CCN(Cc2cc3nc(-c4cccc5[nH]ncc45)nc(N4CCOCC4)c3s2)CC1 [Pictilisib] (partner 1 µM)
Reply: 0.481

Ask: # return recorded relative viability for input COc1cc2nccc(Oc3ccc(NC(=O)Nc4cc(C)on4)c(Cl)c3)c2cc1OC [Tivozanib] + CC1(C)CCC(c2ccc(Cl)cc2)=C(CN2CCN(c3ccc(C(=O)NS(=O)(=O)c4ccc(N[C@H](CCN5CCOCC5)CSc5ccccc5)c(S(=O)(=O)C(F)(F)F)c4)cc3)CC2)C1 [Navitoclax] (partner 0.5 µM)
Reply: 0.473

Ask: Return relative viability for the following compound: COc1cc2nccc(Oc3ccc(NC(=O)Nc4cc(C)on4)c(Cl)c3)c2cc1OC [Tivozanib] + CC(C)C[C@H](NC(=O)[C@H](Cc1ccccc1)NC(=O)c1cnccn1)B(O)O [Bortezomib] (partner 0.002 µM)
Reply: 0.43

Ask: Supply reported relative viability belonging to this compound: COc1cc2nccc(Oc3ccc(NC(=O)Nc4cc(C)on4)c(Cl)c3)c2cc1OC [Tivozanib] + O=C(CCCCCCC(=O)Nc1ccccc1)NO [Vorinostat] (partner 1 µM)
Reply: 0.765

Ask: Using the record for COc1cc2nccc(Oc3ccc(NC(=O)Nc4cc(C)on4)c(Cl)c3)c2cc1OC [Tivozanib] + CC(=O)c1c(C)c2cnc(Nc3ccc(N4CCNCC4)cn3)nc2n(C2CCCC2)c1=O [Palbociclib] (partner 0.5 µM) , state its measured relative viability.
Reply: 0.214

Ask: Kindly indicate its recorded relative viability. Item: Nc1ccn([C@@H]2O[C@H](CO)[C@@H](O)[C@@H]2O)c(=O)n1 [Cytarabine] + COc1cc2c(Oc3ccc(NC(=O)C4(C(=O)Nc5ccc(F)cc5)CC4)cc3F)ccnc2cc1OCCCN1CCOCC1 [Foretinib] (partner 0.25 µM)
Reply: 0.841

Ask: Give a short answer stating reported relative viability for COc1cc2nccc(Oc3ccc(NC(=O)Nc4cc(C)on4)c(Cl)c3)c2cc1OC [Tivozanib] + Nc1nc2[nH]cc(CCc3ccc(C(=O)N[C@@H](CCC(=O)O)C(=O)O)cc3)c2c(=O)[nH]1 [Pemetrexed] (partner 0.2 µM) .
Reply: 0.245

###

relative viability values, listed per item
Test system: LOU-NH91
ASSAY_OVERVIEW: relative viability (nuclei count vs DMSO), 5 days (fraction); higher = more cells survive
COND: first compound 0.08 µM
I'd appreciate a reply containing only the number, no unit.

Record excerpt, results attached:
Cc1cnc(-c2cnc(NCCNc3ccc(C#N)cn3)nc2-c2ccc(Cl)cc2Cl)[nH]1 + Cc1cc(Nc2cc(N3CCN(C)CC3)nc(Sc3ccc(NC(=O)C4CC4)cc3)n2)n[nH]1 [Tozasertib] (partner 0.1 µM)
0.648
Cc1cnc(-c2cnc(NCCNc3ccc(C#N)cn3)nc2-c2ccc(Cl)cc2Cl)[nH]1 + CS(=O)(=O)N1CCN(Cc2cc3nc(-c4cccc5[nH]ncc45)nc(N4CCOCC4)c3s2)CC1 [Pictilisib] (partner 1 µM)
0.532
Cc1cnc(-c2cnc(NCCNc3ccc(C#N)cn3)nc2-c2ccc(Cl)cc2Cl)[nH]1 + O=C(c1cc(Cc2n[nH]c(=O)c3ccccc23)ccc1F)N1CCN(C(=O)C2CC2)CC1 [Olaparib] (partner 8 µM)
0.94
Cc1cnc(-c2cnc(NCCNc3ccc(C#N)cn3)nc2-c2ccc(Cl)cc2Cl)[nH]1 + CC(C)C[C@H](NC(=O)[C@H](Cc1ccccc1)NC(=O)c1cnccn1)B(O)O [Bortezomib] (partner 0.002 µM)
0.488
O=c1[nH]c2ccccc2n1C1CCN(CCCC(c2ccc(F)cc2)c2ccc(F)cc2)CC1 [Pimozide] + N=C(N)NC(=N)NCCc1ccccc1 [Phenformin] (partner 250 µM)
0.43
O=c1[nH]c2ccccc2n1C1CCN(CCCC(c2ccc(F)cc2)c2ccc(F)cc2)CC1 [Pimozide] + CCNC(=O)c1noc(-c2cc(C(C)C)c(O)cc2O)c1-c1ccc(CN2CCOCC2)cc1 [Luminespib] (partner 0.01 µM)
0.377

Ask: Given the compound Cc1cnc(-c2cnc(NCCNc3ccc(C#N)cn3)nc2-c2ccc(Cl)cc2Cl)[nH]1 + Cc1nc(Nc2ncc(C(=O)Nc3c(C)cccc3Cl)s2)cc(N2CCN(CCO)CC2)n1 [Dasatinib] (partner 0.075 µM) , write its reported relative viability.
Reply: 0.562

Ask: Write down relative viability measured for item Cc1cnc(-c2cnc(NCCNc3ccc(C#N)cn3)nc2-c2ccc(Cl)cc2Cl)[nH]1 + C[C@]1(O)C[C@@H](c2nc(-c3ccc4ccc(-c5ccccc5)nc4c3)c3c(N)nccn32)C1 [Linsitinib] (partner 1 µM)
Reply: 1.07

Ask: Using the record for Cc1cnc(-c2cnc(NCCNc3ccc(C#N)cn3)nc2-c2ccc(Cl)cc2Cl)[nH]1 + Nc1ncn([C@H]2C[C@H](O)[C@@H](CO)O2)c(=O)n1 [Decitabine] (partner 2 µM) , state its measured relative viability.
Reply: 0.818

###

System: SK-LU-1
ASSAY_OVERVIEW: relative viability (nuclei count vs DMSO), 5 days (fraction); higher = more cells survive
COND: first compound 0.005 µM
relative viability listing for selected compounds.
# answer = number (no unit)

Nc1ccn([C@@H]2O[C@H](CO)[C@@H](O)[C@@H]2O)c(=O)n1 [Cytarabine] + O=C(c1cc(Cc2n[nH]c(=O)c3ccccc23)ccc1F)N1CCN(C(=O)C2CC2)CC1 [Olaparib] (partner 8 µM)
0.472

Let's switch to this compound now.
Ask: Give measured relative viability for COc1cc2nccc(Oc3ccc(NC(=O)Nc4cc(C)on4)c(Cl)c3)c2cc1OC [Tivozanib] + CC1(C)CCC(c2ccc(Cl)cc2)=C(CN2CCN(c3ccc(C(=O)NS(=O)(=O)c4ccc(N[C@H](CCN5CCOCC5)CSc5ccccc5)c(S(=O)(=O)C(F)(F)F)c4)cc3)CC2)C1 [Navitoclax] (partner 0.5 µM) (SK-LU-1).
Reply: 0.837

Entry source: the supplement of paper PMC10307832
